Measured pIC50 values are reported for all entries that follow.
# measurement.target: CXCR7 (Homo sapiens)
# Sequence (P25106 whole entry): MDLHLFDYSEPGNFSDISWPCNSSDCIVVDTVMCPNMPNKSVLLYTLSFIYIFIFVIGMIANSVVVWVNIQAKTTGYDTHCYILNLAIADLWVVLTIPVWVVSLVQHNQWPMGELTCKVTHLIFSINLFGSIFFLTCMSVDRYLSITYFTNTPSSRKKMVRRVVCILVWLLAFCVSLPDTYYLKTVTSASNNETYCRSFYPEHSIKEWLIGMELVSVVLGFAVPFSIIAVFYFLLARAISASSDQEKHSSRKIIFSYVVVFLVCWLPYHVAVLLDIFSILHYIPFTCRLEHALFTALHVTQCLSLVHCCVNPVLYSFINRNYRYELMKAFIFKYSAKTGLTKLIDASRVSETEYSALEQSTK
# procedure.summary: CXCR7 β-arrestin recruitment assay in CHO-CXCR7 cells (ProLink/EA β-galactosidase complementation), induced by human SDF-1a
# reported.conditions: assay buffer, SDF-1a at EC50 concentration
pIC50: −log10 of the molar value.

[[record]]
molecule = "Cc1cc(C)nc(C(C)(C)NC(=O)CC2(NC(=O)c3nnc(-c4ccc(F)cc4F)s3)CN([C@H]3CC[C@](C)(O)CC3)C2)c1"
measurement_target = "CXCR7 (Homo sapiens)"
reported_measurement = "> 8.30"

[[record]]
molecule = "COc1cccc(C(C)(C)NC(=O)CC2(NC(=O)c3cc(-c4ccc(F)cc4F)on3)CN([C@H]3CC[C@@](C)(O)CC3)C2)c1F"
measurement_target = "CXCR7 (Homo sapiens)"
reported_measurement = "7.00 to 8.30"


Now examine the next entry.
*Q* // returns reported pIC50 for input CC(C)(NC(=O)CC1(NC(=O)c2cc(-c3ccc(F)cc3F)on2)CN([C@H]2CC[C@@](C)(C(=O)O)CC2)C1)c1ccccn1
*A* 4.70 to 6.00
